// Ratio Ki lookup, one value per entry
target or system: Adenosine A2 receptor (Homo sapiens) (UniProt P29275+P29274)
assay method text: Selectivity for human adenosine A2b receptor over adenosine A2a receptor
Format: protein assay
Just the number.

Past entries and their recorded results:
1) CCCn1c(=O)c2nc(-c3cnn(Cc4ccc(C(F)(F)F)cc4)c3)[nH]c2n(CCC)c1=O | 7
2) CCCn1c(=O)c2nc(-c3cnn(Cc4ccc(C)cc4)c3)[nH]c2n(CCC)c1=O | 2
3) CCn1c(=O)c2nc(-c3cnn(Cc4cccc(F)c4)c3)[nH]c2n(CC)c1=O | 58
4) Cn1c(=O)c2nc(-c3cnn(Cc4ccccc4)c3)[nH]c2n(C)c1=O | 1
5) CCCn1c(=O)c2nc(-c3cnn(Cc4cccc(Cl)c4F)c3)[nH]c2n(CCC)c1=O | 13
6) Cn1c(=O)c2[nH]c(-c3cnn(Cc4cccc(F)c4)c3)nc2n(C)c1=O | 7
7) CCCn1c(=O)c2nc(-c3cnn(CCCc4ccccc4)c3)[nH]c2n(CCC)c1=O | 2
8) CCCn1c(=O)c2nc(-c3cnn(Cc4cc(Cl)ccc4Cl)c3)[nH]c2n(CCC)c1=O | 2

Task item: Data request, read-out Ratio Ki, for `CCCn1c(=O)c2nc(-c3cnn(CCc4ccccc4)c3)[nH]c2n(CCC)c1=O`
Reply: 7

Task item: Data request, read-out Ratio Ki, for `CC(C)Cn1c(=O)c2nc(-c3cnn(Cc4ccccc4)c3)[nH]c2n(CC(C)C)c1=O`
Reply: 1

Task item: Data request, read-out Ratio Ki, for `Cn1c(=O)c2nc(-c3cnn(Cc4cccc(C(F)(F)F)c4)c3)[nH]c2n(C)c1=O`
Reply: 690

Task item: Data request, read-out Ratio Ki, for `CCn1c(=O)c2nc(-c3cnn(Cc4cccc(C(F)(F)F)c4)c3)[nH]c2n(CC)c1=O`
Reply: 34

Task item: Data request, read-out Ratio Ki, for `CCCn1c(=O)c2nc(-c3cnn(Cc4ccccc4C(F)(F)F)c3)[nH]c2n(CCC)c1=O`
Reply: 6
